# test-system: T1, human PCSK9 variant a (human, UniProt Q8NBP7 31-692)
# T1 construct: also called Human PCSK9 var A; hPCSK9a
# test-details: ProteOn SPR, captured antibody, pH 7.6;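 further: antibodies captured via anti-human Fc on a GLC sensor chip, PCSK9 binding sensorgrams fitted to a 1:1 Langmuir model giving on and off rates, with KD derived from them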
metric: kon (M⁻¹ s⁻¹)

binder	numeric-value
CL-274698 (antibody, V domains shown, Human antibody with a kappa light chain, derived from a PCSK9 knockout mouse) VH: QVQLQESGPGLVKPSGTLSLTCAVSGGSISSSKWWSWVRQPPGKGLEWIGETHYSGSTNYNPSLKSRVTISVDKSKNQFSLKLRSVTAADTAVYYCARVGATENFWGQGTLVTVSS VL: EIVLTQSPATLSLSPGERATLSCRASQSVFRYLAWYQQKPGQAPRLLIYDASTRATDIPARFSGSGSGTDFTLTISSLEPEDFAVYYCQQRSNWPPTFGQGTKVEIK	1.37e+06
CL-148219 (antibody, V domains shown, NLT motif in heavy chain framework 3 confirmed N-glycosylated by mass spectrometry, Human antibody, captured through anti-human Fc in the SPR assay) VH: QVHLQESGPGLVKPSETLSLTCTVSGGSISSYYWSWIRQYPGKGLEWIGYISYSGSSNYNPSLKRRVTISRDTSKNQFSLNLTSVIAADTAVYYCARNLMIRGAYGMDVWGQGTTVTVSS VL: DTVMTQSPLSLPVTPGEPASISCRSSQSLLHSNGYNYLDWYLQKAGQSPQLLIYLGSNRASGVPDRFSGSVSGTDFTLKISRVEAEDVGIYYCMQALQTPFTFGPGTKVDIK	1.08e+06
CL-148219 QLT mutant (antibody, V domains shown) VH: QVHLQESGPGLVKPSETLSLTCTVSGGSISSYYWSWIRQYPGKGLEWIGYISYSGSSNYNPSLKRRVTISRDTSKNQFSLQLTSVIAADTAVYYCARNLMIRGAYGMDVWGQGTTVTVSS VL: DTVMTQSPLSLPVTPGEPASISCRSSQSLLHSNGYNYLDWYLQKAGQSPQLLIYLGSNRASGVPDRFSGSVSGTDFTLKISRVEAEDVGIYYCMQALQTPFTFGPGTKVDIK	856000
CL-148489 (antibody, V domains shown, Human antibody with a kappa light chain) VH: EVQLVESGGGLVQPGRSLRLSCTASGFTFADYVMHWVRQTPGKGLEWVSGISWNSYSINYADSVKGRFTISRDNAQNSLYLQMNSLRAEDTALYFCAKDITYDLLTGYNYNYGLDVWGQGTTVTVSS VL: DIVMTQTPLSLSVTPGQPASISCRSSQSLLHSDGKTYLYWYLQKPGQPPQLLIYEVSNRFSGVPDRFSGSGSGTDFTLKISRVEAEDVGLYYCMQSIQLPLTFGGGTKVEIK	894000
